In this section, each of the sequences is paired with its reported binding signal.
Assayed Target: SIX1 homeodomain (reference allele) (human, UniProt Q15475 108-198)
Sequence: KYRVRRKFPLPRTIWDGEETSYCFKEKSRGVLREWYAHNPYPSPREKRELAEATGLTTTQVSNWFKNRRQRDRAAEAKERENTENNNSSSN
Protocol Description: universal protein binding microarray; Universal all-10-mer PBM (8x60K, AMADID 030236), 300 nM GST-tagged protein, Alexa Fluor 488 anti-GST; buffer, salt, pH and temperature not stated (as in Berger); high values mean tight binding
Particulars: protein: ivt; tags: N-terminal GST; dsDNA, one strand shown
In all, about 33,000 sequences were measured (“e-score”: median about -0.053, highest 2% from about 0.38 on). This excerpt belongs to a sample that is enriched for the highest values.

# Sequence Input, Assayed Target, Reading Unit, binding signal
records = [
    ("ACGATACC", "SIX1 homeodomain (reference allele) (human, UniProt Q15475 108-198)", "E-score", 0.477),
    ("ACTATCAT", "SIX1 homeodomain (reference allele) (human, UniProt Q15475 108-198)", "E-score", 0.3),
    ("CCTATACC", "SIX1 homeodomain (reference allele) (human, UniProt Q15475 108-198)", "E-score", 0.311),
    ("GCGATACA", "SIX1 homeodomain (reference allele) (human, UniProt Q15475 108-198)", "E-score", 0.376),
    ("AGTATTAA", "SIX1 homeodomain (reference allele) (human, UniProt Q15475 108-198)", "E-score", 0.233),
]

----------
Assayed Target: SIX1 homeodomain (reference allele) (human, UniProt Q15475 108-198)
Sequence: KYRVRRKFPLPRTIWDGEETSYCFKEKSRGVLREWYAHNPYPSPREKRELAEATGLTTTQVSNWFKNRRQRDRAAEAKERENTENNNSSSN
Protocol Description: universal protein binding microarray; Universal all-10-mer PBM (8x60K, AMADID 030236), 300 nM GST-tagged protein, Alexa Fluor 488 anti-GST; buffer, salt, pH and temperature not stated (as in Berger); high values mean tight binding
Particulars: protein: ivt; tags: N-terminal GST; dsDNA, one strand shown
In all, about 33,000 sequences were measured (“e-score”: median about -0.053, highest 2% from about 0.38 on). The list comes from a sample in which the highest values are over-represented; it also holds close analogues and randomly drawn sequences.
Entries are grouped by binding signal into these classes: low-valued (below 0.2 E-score), mid-valued (0.2 E-score to below 0.3 E-score), high-valued (0.3 E-score or more)

# Sequence Input, Group Label
measured = [
    ("ATCCTTCG", "mid-valued"),
    ("AACGATCA", "mid-valued"),
    ("ATGTATTG", "mid-valued"),
    ("AGATCCTA", "mid-valued"),
    ("CAGATCAC", "high-valued"),
    ("ATCGGGTA", "high-valued"),
    ("CTAGACAC", "low-valued"),
    ("GGATTGGA", "low-valued"),
    ("GTGGATCA", "high-valued"),
    ("ATCAGTCA", "mid-valued"),
    ("ATGTATCC", "high-valued"),
    ("CCCGTGTA", "low-valued"),
    ("GATCGCAC", "mid-valued"),
    ("CCGCATTA", "low-valued"),
    ("GTGTCCGA", "mid-valued"),
    ("CCGGTATA", "high-valued"),
    ("ATGTATCA", "high-valued"),
    ("GTGATCGA", "low-valued"),
    ("AGGGTGAT", "high-valued"),
    ("GTGTATGA", "low-valued"),
]
